METHOD DESCRIPTION: in vivo
STUDY CONDITIONS: ICR, mouse, in vivo, iv
MEASURED ENDPOINT: LD50

>>> recorded_value("CC(=O)O[C@H]1C(=O)[C@@]2(C)[C@H]([C@H](OC(=O)c3ccccc3)[C@]3(O)C[C@H](OC(=O)[C@H](O)[C@@H](NC(=O)c4ccccc4)c4ccccc4)C(C)=C1C3(C)C)[C@]1(OC(C)=O)CO[C@@H]1C[C@@H]2O [Paclitaxel, reference compound]")
"9 to 13 mg/kg"

* * *

EC50 by entry:
Test system: SK-MEL-2
METHOD DESCRIPTION: Cytotoxicity test to cancer cell lines (SRB method), SK-MEL-2
Format: cell-based
STUDY CONDITIONS: Homo sapiens, SK-MEL-2, 48 h, read-out: Cytotoxicity ED50 SK-MEL-2
MEASURED ENDPOINT: EC50

>>> recorded_value("COc1cc2c(c(OC)c1OC)-c1ccc(SC)c(=O)cc1[C@@H](NC(=O)c1ccccc1OC(=O)CCCO[N+](=O)[O-])CC2")
"3.6 nM"
>>> recorded_value("COc1cc2c(c(OC)c1OC)-c1ccc(SC)c(=O)cc1[C@@H](NC(=O)c1cccc(OC(=O)c3cccc(CO[N+](=O)[O-])c3)c1)CC2")
"0.9 nM"
>>> recorded_value("CCOc1cc2c(c(OC)c1OC)-c1ccc(SC)c(=O)cc1[C@@H](NC(=O)c1cccc(CO[N+](=O)[O-])c1F)CC2")
"0.01 nM"
>>> recorded_value("COc1cc2c(c(OC)c1OC)-c1ccc(SC)c(=O)cc1[C@@H](NC(=O)c1ccc(COC(=O)c3cccc(O[N+](=O)[O-])c3)nc1)CC2")
"14 nM"
>>> recorded_value("COc1cc2c(c(OC)c1OC)-c1ccc(SC)c(=O)cc1[C@@H](NC(=O)c1cccc(CSN=O)c1)CC2")
"3.3 nM"
>>> recorded_value("COc1cc2c(c(OC)c1OC)-c1ccc(SC)c(=O)cc1[C@@H](NC(=O)c1ccccc1OC(=O)c1cccc(CO[N+](=O)[O-])c1)CC2")
"0.9 nM"

* * *

Test system: MCF7
METHOD DESCRIPTION: Cytotoxicity test to cancer cell lines (SRB method), MCF7
STUDY CONDITIONS: read-out: Cytotoxicity ED50 MCF-7, MCF-7, 48 hours
log10 of EC50 by entry:
MEASURED ENDPOINT: log10 of EC50 (log10 of the value in nM)

>>> recorded_value("COc1cc2c(c(OC)c1OC)-c1ccc(OC)c(=O)cc1[C@@H](NC(=O)c1cc(F)cc(CO[N+](=O)[O-])c1)CC2")
1.02
>>> recorded_value("COc1cc2c(c(OC)c1OC)-c1ccc(SC)c(=O)cc1[C@@H](NC(=O)c1ccc(CO[N+](=O)[O-])cc1O)CC2")
0.06
>>> recorded_value("COc1c(OC2CCCC2)cc2c(c1OC)-c1ccc(SC)c(=O)cc1[C@@H](NC(=O)c1cc(F)cc(CO[N+](=O)[O-])c1)CC2")
1.27
>>> recorded_value("COc1c(OC(C)C)cc2c(c1OC)-c1ccc(SC)c(=O)cc1[C@@H](NC(=O)c1cc(F)cc(CO[N+](=O)[O-])c1)CC2")
1.05
>>> recorded_value("CC(=O)O[C@H]1C(=O)[C@@]2(C)[C@H]([C@H](OC(=O)c3ccccc3)[C@]3(O)C[C@H](OC(=O)[C@H](O)[C@@H](NC(=O)c4ccccc4)c4ccccc4)C(C)=C1C3(C)C)[C@]1(OC(C)=O)CO[C@@H]1C[C@@H]2O [Paclitaxel, reference compound]")
-0.05
>>> recorded_value("COc1cc2c(c(OC)c1OC)-c1ccc(SC)c(=O)cc1[C@@H](NC(=O)c1cccc(COC(=O)CCCO[N+](=O)[O-])c1)CC2")
-2.00
>>> recorded_value("CCOc1cc2c(c(OC)c1OC)-c1ccc(SC)c(=O)cc1[C@@H](NC(=O)c1cccc(CO[N+](=O)[O-])c1)CC2")
-2.00
>>> recorded_value("COc1cc2c(c(OC)c1OC)-c1ccc(SC)c(=O)cc1[C@@H](N(C)C(=O)c1cccc(CO[N+](=O)[O-])c1)CC2")
1.67

* * *

METHOD DESCRIPTION: in vivo
STUDY CONDITIONS: both, ICR, mouse, in vivo
MEASURED ENDPOINT: LD50 at 7 days (mg/kg)

>>> recorded_value("COc1cc2c(c(OC)c1OC)-c1ccc(OC)c(=O)cc1[C@@H](NC(C)=O)CC2")
2

* * *

EC50 by entry:
System: SK-MEL-2
METHOD DESCRIPTION: Cytotoxicity test to cancer cell lines (SRB method), SK-MEL-2
Format: cell-based
STUDY CONDITIONS: Homo sapiens, SK-MEL-2, 48 h, read-out: Cytotoxicity ED50 SK-MEL-2
MEASURED ENDPOINT: EC50 (nM)

>>> recorded_value("CCOc1cc2c(c(OC)c1OC)-c1ccc(SC)c(=O)cc1[C@@H](NC(=O)c1cccc(CO[N+](=O)[O-])c1)CC2 [Example 4]")
0.01
>>> recorded_value("COc1cc2c(c(OC)c1OC)-c1ccc(SC)c(=O)cc1[C@@H](NC(=O)c1ccc(CO[N+](=O)[O-])nc1)CC2 [Example 1]")
0.4
>>> recorded_value("COc1cc2c(c(OC)c1OC)-c1ccc(SC)c(=O)cc1[C@@H](NC(=O)c1ccc(CO[N+](=O)[O-])cc1O)CC2 [Example 20]")
2.47

* * *

Tested on: SK-MEL-2
METHOD DESCRIPTION: Cytotoxicity test to cancer cell lines (SRB method), SK-MEL-2
Type: cell-based
STUDY CONDITIONS: Homo sapiens, SK-MEL-2, 48 h, read-out: Cytotoxicity ED50 SK-MEL-2
Criterion: EC50 strictly under 1 nM. Met: True. Not met: False.

>>> discrete_label("COc1cc2c(c(OC)c1OC)-c1ccc(SC)c(=O)cc1[C@@H](NC(=O)c1ccc(CO[N+](=O)[O-])o1)CC2 [Example 2]")
"False"
>>> discrete_label("COc1cc2c(c(OC)c1OC)-c1ccc(SC)c(=O)cc1[C@@H](NC(=O)c1ccc(COC(=O)CCCO[N+](=O)[O-])nc1)CC2 [Example 26]")
"False"
>>> discrete_label("COc1cc2c(c(OC)c1OC)-c1ccc(OC)c(=O)cc1[C@@H](NC(=O)c1cc(F)cc(CO[N+](=O)[O-])c1)CC2 [Example 40]")
"False"
>>> discrete_label("CC(=O)O[C@H]1C(=O)[C@@]2(C)[C@H]([C@H](OC(=O)c3ccccc3)[C@]3(O)C[C@H](OC(=O)[C@H](O)[C@@H](NC(=O)c4ccccc4)c4ccccc4)C(C)=C1C3(C)C)[C@]1(OC(C)=O)CO[C@@H]1C[C@@H]2O [Paclitaxel, reference compound]")
"True"
>>> discrete_label("COc1cc2c(c(OC)c1OC)-c1ccc(SC)c(=O)cc1[C@@H](NC(=O)c1cc(CO[N+](=O)[O-])ccc1F)CC2 [Example 17]")
"True"
>>> discrete_label("COc1cc2c(c(OC)c1OC)-c1ccc(SC)c(=O)cc1[C@@H](NC(=O)c1cc(CO[N+](=O)[O-])cc(CO[N+](=O)[O-])c1)CC2 [Example 19]")
"False"
>>> discrete_label("COc1cc2c(c(OC)c1OC)-c1ccc(SC)c(=O)cc1[C@@H](NC(=O)c1cccc(CON=O)c1)CC2 [Example 36]")
"True"
>>> discrete_label("COc1cc2c(c(OC)c1OC)-c1ccc(SC)c(=O)cc1[C@@H](NC(=O)c1sccc1CO[N+](=O)[O-])CC2 [Example 22]")
"True"
>>> discrete_label("COc1cc2c(c(OC)c1OC)-c1ccc(SC)c(=O)cc1[C@@H](NC(=O)c1ccccc1SN=O)CC2 [Example 35]")
"False"
>>> discrete_label("CCOc1cc2c(c(OC)c1OC)-c1ccc(SC)c(=O)cc1[C@@H](NC(=O)c1cc(F)cc(CO[N+](=O)[O-])c1)CC2 [Example 13]")
"True"
>>> discrete_label("COc1cc2c(c(OC)c1OC)-c1ccc(SC)c(=O)cc1[C@@H](NC(=O)Cc1cccc(CO[N+](=O)[O-])c1)CC2 [Example 23]")
"False"

* * *

EC50 by entry:
Tested on: SK-MEL-2
METHOD DESCRIPTION: Cytotoxicity test to cancer cell lines (SRB method), SK-MEL-2
Assay type: cell-based
STUDY CONDITIONS: Homo sapiens, SK-MEL-2, 48 h, read-out: Cytotoxicity ED50 SK-MEL-2
MEASURED ENDPOINT: EC50 (nM)

>>> recorded_value("COc1c(OC(C)C)cc2c(c1OC)-c1ccc(SC)c(=O)cc1[C@@H](NC(=O)c1cccc(CO[N+](=O)[O-])c1)CC2 [Example 3]")
1
>>> recorded_value("COc1cc2c(c(OC)c1OC)-c1ccc(SC)c(=O)cc1[C@@H](NC(=O)c1cccc(COC(=O)CCCO[N+](=O)[O-])c1)CC2 [Example 34]")
0.01
>>> recorded_value("COc1cc2c(c(OC)c1OC)-c1ccc(OC)c(=O)cc1[C@@H](NC(C)=O)CC2 [Colchicine]")
6
